tested on: replicon RNA transcribed from SCVR; assay type: cell-based, SARS-CoV-1
assay-metric: replication of replicon RNA transcribed from SCVR

• CN(C)CC#Cc1ccc(OCCCc2sc(N3CCc4cccc(C(=O)Nc5nc6ccccc6s5)c4C3)nc2C(=O)O)c(F)c1 = inhibited
• CN(C)CC[C@H](CSc1ccccc1)Nc1ccc(S(=O)(=O)NC(=O)c2ccc(N3CCN(Cc4ccccc4-c4ccc(Cl)cc4)CC3)cc2)cc1[N+](=O)[O-] = inhibited
• CC1(C)CCC(c2ccc(Cl)cc2)=C(CN2CCN(c3ccc(C(=O)NS(=O)(=O)c4ccc(N[C@H](CCN5CCOCC5)CSc5ccccc5)c(S(=O)(=O)C(F)(F)F)c4)cc3)CC2)C1 = inhibited
• Cc1c(-c2ccc(N3CCc4cccc(C(=O)Nc5nc6ccccc6s5)c4C3)nc2C(=O)O)cnn1CC12CC3CC(CC(C3)C1)C2 = inhibited

----------
tested on: replicon RNA transcribed from NOBEVR; assay: microbe, parasite or virus in culture; format: cell-based, Nobecovirus
assay-metric: replication of replicon RNA in NOBEVR

* CC(C)(C)[C@H](NC(=O)C(F)(F)F)C(=O)N1C[C@H]2[C@@H]([C@H]1C(=O)N[C@H](C#N)C[C@@H]1CCNC1=O)C2(C)C | did not inhibit
* NC(=O)c1nc(F)c[nH]c1=O | did not inhibit
* Cn1cnc(Cn2c(=O)[nH]/c(=N\c3cc4cn(C)nc4cc3Cl)n(Cc3cc(F)c(F)cc3F)c2=O)n1.O=C(O)/C=C/C(=O)O [ensitrevir fumarate] | did not inhibit
* CCC(CC)COC(=O)[C@H](C)N[P@](=O)(OC[C@H]1O[C@@](C#N)(c2ccc3c(N)ncnn23)[C@H](O)[C@@H]1O)Oc1ccccc1 | did not inhibit

----------
tested on: HCV replicon RNA; test: HCV subgenomic replicon replication, Renilla luciferase activity; format: cell-based, genotype 1b HCV (1B-4 strain); details: Hepatitis C virus; 72 hours, RL activity, FIG. 15B; read-out: EC50, inhibition of the replication of HCV replicon RNA
assay-metric: EC50 (nM)

* Cc1c(-c2ccc(N3CCc4cccc(C(=O)Nc5nc6ccccc6s5)c4C3)nc2C(=O)O)cnn1CC12CC3CC(CC(C3)C1)C2 [A-1331852] | 14.8

----------
test: Evaluation of cytotoxicity (WST-1); conditions: human, HuH-7.6c cells
assay-metric: CC50 at 48 h (µM)

• CC1(C)CCC(c2ccc(Cl)cc2)=C(CN2CCN(c3ccc(C(=O)NS(=O)(=O)c4ccc(N[C@H](CCN5CCOCC5)CSc5ccccc5)c(S(=O)(=O)C(F)(F)F)c4)cc3)CC2)C1 = 18.6

Ref: patent EP4678750A1
